Assay: In vivo brain exposure study in mouse
Conditions: po; mouse CD-1 male, 10 mg/kg p.o., brain, 2 h; read-out: Brain-2 h
property: concentration at 2 h
Could you kindly put the unit after your number?

Inquiry: Given the entry Cc1ncnc2c1ccn2[C@@H]1O[C@H]([C@H](O)c2ccc3c(c2)CC3)[C@@H](O)[C@H]1O [Example 11] , report its measured concentration at 2 h.
Reply text: 85.7 ng/g

----------
Experiment: In vivo pharmacokinetic study in rat
Conditions: Sprague-Dawley (SD), blood, iv; rat SD male, i.v. 1 mg/kg; read-out: Vss
property: Vd (L/kg)
Lab book: enter the figure in L/kg, no units written.

Inquiry: Please look up its Vd: "Cc1ncnc2c1ccn2[C@@H]1O[C@H]([C@H](O)c2ccc3c(c2)CC3)[C@@H](O)[C@H]1O"
Reply text: 2.85
